Reference for the values: patent US20070244297A1

target: recombinant human neuronal calcium channel α1B-2β1-3 (human), Q00975; assay: 125I-ω-CgTx GVIA saturation binding to transiently transfected HEK293 cells

- binder: "CKSPGSSCSPTSYNCCRSCNPYTKRCYG (modifications not checked) [125I-ω-CgTx GVIA, P01522 46-73]"
  Kd, nM: 0.0222
